# Test system: furin, P09958;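 note: purified furin at 1:10 enzyme:substrate in 50 mM HEPES pH 7.5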
# Sequence (P09958 whole entry): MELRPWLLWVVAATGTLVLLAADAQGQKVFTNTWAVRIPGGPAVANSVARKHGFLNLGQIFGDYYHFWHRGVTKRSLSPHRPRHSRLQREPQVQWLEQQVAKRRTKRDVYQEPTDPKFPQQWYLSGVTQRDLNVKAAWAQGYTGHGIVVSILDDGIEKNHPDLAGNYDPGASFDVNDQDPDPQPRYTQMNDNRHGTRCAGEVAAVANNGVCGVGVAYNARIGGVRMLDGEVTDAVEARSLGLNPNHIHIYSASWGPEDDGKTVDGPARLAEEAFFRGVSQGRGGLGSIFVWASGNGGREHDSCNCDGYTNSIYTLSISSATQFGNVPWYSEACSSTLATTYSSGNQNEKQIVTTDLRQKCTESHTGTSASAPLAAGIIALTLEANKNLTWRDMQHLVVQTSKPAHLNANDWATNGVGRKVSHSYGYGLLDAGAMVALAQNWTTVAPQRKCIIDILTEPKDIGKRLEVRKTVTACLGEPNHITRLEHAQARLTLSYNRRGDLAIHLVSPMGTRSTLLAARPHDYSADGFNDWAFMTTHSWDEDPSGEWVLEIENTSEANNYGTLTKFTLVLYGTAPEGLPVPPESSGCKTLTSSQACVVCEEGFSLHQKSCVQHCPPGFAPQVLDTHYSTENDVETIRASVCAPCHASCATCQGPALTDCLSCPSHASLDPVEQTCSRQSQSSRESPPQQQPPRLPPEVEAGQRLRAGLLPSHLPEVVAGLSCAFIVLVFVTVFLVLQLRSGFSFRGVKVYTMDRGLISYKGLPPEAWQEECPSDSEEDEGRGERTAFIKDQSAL
# Assay comment: furin cleavage Z-score vs untreated control; higher = more cleavage, active = 3.5 or more, inactive = 1 or less, 8 variable residues between constant flanks
# Run conditions: 30 min
The list shows a part of the results. The hit rate among all sequences tested is not known here.
Pick one and only one: active, inactive

Prompt line: Hi, sorry to bother you, what did the test record for CARHRRQRRSAGNASASA [FS-707] ?
Response line: active

Prompt line: Record request — test call for CAVDVVCCSMAGNASASA [HC2110]
Response line: inactive

Prompt line: Called result for CAAVEVDGAGAGNASASA [CS7]
Response line: inactive

Prompt line: Answer briefly: the call reported for CAWHYPPKPCAGNASASA [HC404] in this assay.
Response line: inactive
